Let's look at some variants and their measured polymerase ribozyme fitness (log ratio).
B1: TPR 5TU (parent)
chain: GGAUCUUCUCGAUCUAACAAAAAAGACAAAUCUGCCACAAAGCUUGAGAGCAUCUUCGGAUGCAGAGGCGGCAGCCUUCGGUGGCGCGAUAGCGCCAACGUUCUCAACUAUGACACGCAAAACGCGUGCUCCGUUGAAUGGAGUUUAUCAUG

variants of: B1; test: polymerase ribozyme fitness, log enrichment relative to wild type (log ratio); higher = more active; in vitro selection for triplet polymerase activity
Fewer inactive variants are shown than the library holds.

[
  {
    "MUTANT_CODE": "A41C C43U C125U",
    "RESULT_COMPARATOR": "≤",
    "polymerase ribozyme fitness (log ratio)": -4.2
  },
  {
    "MUTANT_CODE": "A26U A52C C96A",
    "RESULT_COMPARATOR": "=",
    "polymerase ribozyme fitness (log ratio)": -3.2
  },
  {
    "MUTANT_CODE": "G11C C125G A142C",
    "RESULT_COMPARATOR": "≤",
    "polymerase ribozyme fitness (log ratio)": -4.2
  },
  {
    "MUTANT_CODE": "A39U A40C C79A U82C C96A U109G A119U G143A",
    "RESULT_COMPARATOR": "≤",
    "polymerase ribozyme fitness (log ratio)": -4.2
  },
  {
    "MUTANT_CODE": "A12U G84A",
    "RESULT_COMPARATOR": "=",
    "polymerase ribozyme fitness (log ratio)": -1.05
  },
  {
    "MUTANT_CODE": "C5U A22U C85A U135A",
    "RESULT_COMPARATOR": "=",
    "polymerase ribozyme fitness (log ratio)": -0.0168
  },
  {
    "MUTANT_CODE": "A98U A147C",
    "RESULT_COMPARATOR": "=",
    "polymerase ribozyme fitness (log ratio)": 0.168
  },
  {
    "MUTANT_CODE": "U31G C43G U53A G83U",
    "RESULT_COMPARATOR": "≤",
    "polymerase ribozyme fitness (log ratio)": -4.2
  },
  {
    "MUTANT_CODE": "G50U U78A",
    "RESULT_COMPARATOR": "≤",
    "polymerase ribozyme fitness (log ratio)": -4.2
  },
  {
    "MUTANT_CODE": "C38U U134G",
    "RESULT_COMPARATOR": "=",
    "polymerase ribozyme fitness (log ratio)": -2.53
  },
  {
    "MUTANT_CODE": "G50C U134A",
    "RESULT_COMPARATOR": "=",
    "polymerase ribozyme fitness (log ratio)": -3.17
  },
  {
    "MUTANT_CODE": "A39C A40G G50C C75A C85G",
    "RESULT_COMPARATOR": "≤",
    "polymerase ribozyme fitness (log ratio)": -4.2
  },
  {
    "MUTANT_CODE": "A19G C69G C76U U82G G88A G141U A150C",
    "RESULT_COMPARATOR": "≤",
    "polymerase ribozyme fitness (log ratio)": -4.2
  },
  {
    "MUTANT_CODE": "A40U C63A C72A C76A C103G",
    "RESULT_COMPARATOR": "≤",
    "polymerase ribozyme fitness (log ratio)": -4.2
  },
  {
    "MUTANT_CODE": "A19G C123G",
    "RESULT_COMPARATOR": "=",
    "polymerase ribozyme fitness (log ratio)": -1.22
  },
  {
    "MUTANT_CODE": "C8A C32G A47U C54G G92U",
    "RESULT_COMPARATOR": "≤",
    "polymerase ribozyme fitness (log ratio)": -4.2
  },
  {
    "MUTANT_CODE": "A41C G48C U56A A89C C103U",
    "RESULT_COMPARATOR": "=",
    "polymerase ribozyme fitness (log ratio)": -2.34
  },
  {
    "MUTANT_CODE": "A17C C95U",
    "RESULT_COMPARATOR": "=",
    "polymerase ribozyme fitness (log ratio)": 0.45
  }
]
